Biological target: Fes (UniProt P07332)
Sequence (P07332 whole entry, looked up): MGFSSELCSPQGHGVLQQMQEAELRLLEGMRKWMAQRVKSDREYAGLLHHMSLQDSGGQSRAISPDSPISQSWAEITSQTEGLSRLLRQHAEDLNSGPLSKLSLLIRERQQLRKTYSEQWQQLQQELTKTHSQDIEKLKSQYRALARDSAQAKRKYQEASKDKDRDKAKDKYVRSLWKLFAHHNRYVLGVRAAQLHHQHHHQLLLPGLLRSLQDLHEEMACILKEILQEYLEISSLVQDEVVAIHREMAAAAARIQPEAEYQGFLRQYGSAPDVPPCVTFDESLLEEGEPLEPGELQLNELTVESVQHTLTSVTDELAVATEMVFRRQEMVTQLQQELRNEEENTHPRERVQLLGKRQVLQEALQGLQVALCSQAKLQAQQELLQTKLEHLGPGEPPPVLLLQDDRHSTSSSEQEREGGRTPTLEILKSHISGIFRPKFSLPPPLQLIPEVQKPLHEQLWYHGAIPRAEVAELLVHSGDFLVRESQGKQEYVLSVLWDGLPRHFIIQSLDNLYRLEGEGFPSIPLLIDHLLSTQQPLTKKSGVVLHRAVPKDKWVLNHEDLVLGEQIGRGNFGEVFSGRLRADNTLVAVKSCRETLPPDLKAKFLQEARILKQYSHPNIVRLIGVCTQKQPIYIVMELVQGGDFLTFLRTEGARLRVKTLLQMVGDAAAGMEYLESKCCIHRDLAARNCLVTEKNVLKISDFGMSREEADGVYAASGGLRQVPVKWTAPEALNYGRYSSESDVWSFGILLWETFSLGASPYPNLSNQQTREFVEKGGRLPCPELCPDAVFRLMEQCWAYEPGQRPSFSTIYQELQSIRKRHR
Assay: phosphorylation enrichment, bacterial display (enrichment ratio); higher = better substrate or ligand; peptides without Tyr show the background
For each record, write down the corresponding phosphorylation enrichment.
Could you respond with only the numeric value?

State its phosphorylation enrichment: YLGEEYVKAVG [TF_Y674] 0.823

State its phosphorylation enrichment: KKRSVYIKVLF [CC2D2A_Y683_L684I] 0.954

State its phosphorylation enrichment: PYRSIYFSSPK [MPG_Y75] 0.648

State its phosphorylation enrichment: SGETEYNPTEA [NBEAL2_Y2748] 1.55

State its phosphorylation enrichment: RPCVVYGGADI [DDX3X_Y301] 1.02

State its phosphorylation enrichment: YNNYGYGNDGF [HNRNPH3_Y161] 0.924

State its phosphorylation enrichment: DNPAKYFILES [DPP10_Y512] 1.04

State its phosphorylation enrichment: SGFESYGSSSY [RPA2_Y9] 0.765

State its phosphorylation enrichment: QSSALYEDRYL [ASS1_Y83] 1.12

State its phosphorylation enrichment: PQAVTYAEVKH [LILRB4_Y360_K362E] 1.03

State its phosphorylation enrichment: AGADGYGFLAP [FOXL2_Y186_YF] 0.737

State its phosphorylation enrichment: GLPQTYCVSGP [DYSF_Y1684] 0.978

State its phosphorylation enrichment: PLKALYLQQRP [ATM_Y2969] 1.49

State its phosphorylation enrichment: LRAGVYHEKDQ [DNM2_Y626_P627H] 1.29

###

Target: Grb2 SH2 (UniProt P62993)
Sequence (P62993 whole entry, looked up): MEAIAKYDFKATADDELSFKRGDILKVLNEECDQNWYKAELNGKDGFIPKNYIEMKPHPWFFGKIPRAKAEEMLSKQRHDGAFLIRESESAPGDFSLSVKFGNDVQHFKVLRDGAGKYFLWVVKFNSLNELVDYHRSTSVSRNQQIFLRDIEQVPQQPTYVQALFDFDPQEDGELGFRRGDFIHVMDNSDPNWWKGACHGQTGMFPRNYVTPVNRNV
Assay: SH2 binding enrichment of the phosphorylated peptide, bacterial display (enrichment ratio); higher = better substrate or ligand; peptides without Tyr show the background
property_measured: SH2 binding enrichment

State its SH2 binding enrichment: MARDIYQASFF [LTK_Y672_R673Q_YF] 0.972

State its SH2 binding enrichment: IINENYDYLKG [NUP98_Y1664] 0.751

State its SH2 binding enrichment: IRKTEYPFSSE [ATP2C1_Y452_A450T] 0.928

State its SH2 binding enrichment: RAILNYIASKY [GSTA3_Y74] 1.19

State its SH2 binding enrichment: WDLPEYSFKDP [ITGA3_Y237_S235P_YF] 0.931

State its SH2 binding enrichment: MEVGQYFFVKC [CYBB_Y324_I325F] 0.716

State its SH2 binding enrichment: DTKPAYQNLRQ [BOD1_Y82] 11.8

State its SH2 binding enrichment: PLDGGYFTLQI [TP53_Y327_E326G] 0.71

State its SH2 binding enrichment: YNNYGYGNDGF [HNRNPH3_Y161] 2.52

State its SH2 binding enrichment: FRSSLYSLMET [MYO5C_Y633_L634S] 0.672

State its SH2 binding enrichment: MRTMGYMPTEM [CABP5_Y62] 0.789

State its SH2 binding enrichment: NETNKYQISVN [FGB_Y368_A365T] 0.889

State its SH2 binding enrichment: ITLPIYTKESE [ANK2_Y1455] 0.845

State its SH2 binding enrichment: FGAHNYHPLPV [OAT_Y55_YF] 0.817

State its SH2 binding enrichment: RREWYYEVIIV [BACE1_Y260] 0.873

State its SH2 binding enrichment: MTYVFYRENLR [NLRP14_Y443] 1.24

State its SH2 binding enrichment: KRGIDYILWHM [FRMD1_Y225_R228W] 1.56

State its SH2 binding enrichment: SENAFYLSPHI [COL6A3_Y2827_D2831H] 0.776

State its SH2 binding enrichment: GDAMLYFPSVS [GPR143_Y177_A173D_YF] 0.744

State its SH2 binding enrichment: PEADKYCLTYA [FGG_Y300_R301C] 0.882

State its SH2 binding enrichment: RELGEYGLQAF [ALDH2_Y497_YF] 1.15

State its SH2 binding enrichment: KTGNIYRTEYG [MRPL3_Y265_M261T] 0.829

State its SH2 binding enrichment: PQAVTYAEVKH [LILRB4_Y360_K362E] 0.83

State its SH2 binding enrichment: RDMMDYMLQGV [CYP21A2_Y259] 0.812

State its SH2 binding enrichment: VTRAKYFIRDE [GNAS_Y339] 0.989

State its SH2 binding enrichment: RRIHSYRGHVW [VHL_Y112_L116V] 0.578

State its SH2 binding enrichment: KLKPIYFHTQG [AR_Y916_V912L] 1.78

State its SH2 binding enrichment: YPSLPYSPVSS [CAMKK2_Y128_C123Y] 0.967

State its SH2 binding enrichment: MIHSAYALGGL [CPS1_Y590_R587H] 0.883

###

Biological target: MERTK (UniProt Q12866)
Sequence (Q12866 whole entry, looked up): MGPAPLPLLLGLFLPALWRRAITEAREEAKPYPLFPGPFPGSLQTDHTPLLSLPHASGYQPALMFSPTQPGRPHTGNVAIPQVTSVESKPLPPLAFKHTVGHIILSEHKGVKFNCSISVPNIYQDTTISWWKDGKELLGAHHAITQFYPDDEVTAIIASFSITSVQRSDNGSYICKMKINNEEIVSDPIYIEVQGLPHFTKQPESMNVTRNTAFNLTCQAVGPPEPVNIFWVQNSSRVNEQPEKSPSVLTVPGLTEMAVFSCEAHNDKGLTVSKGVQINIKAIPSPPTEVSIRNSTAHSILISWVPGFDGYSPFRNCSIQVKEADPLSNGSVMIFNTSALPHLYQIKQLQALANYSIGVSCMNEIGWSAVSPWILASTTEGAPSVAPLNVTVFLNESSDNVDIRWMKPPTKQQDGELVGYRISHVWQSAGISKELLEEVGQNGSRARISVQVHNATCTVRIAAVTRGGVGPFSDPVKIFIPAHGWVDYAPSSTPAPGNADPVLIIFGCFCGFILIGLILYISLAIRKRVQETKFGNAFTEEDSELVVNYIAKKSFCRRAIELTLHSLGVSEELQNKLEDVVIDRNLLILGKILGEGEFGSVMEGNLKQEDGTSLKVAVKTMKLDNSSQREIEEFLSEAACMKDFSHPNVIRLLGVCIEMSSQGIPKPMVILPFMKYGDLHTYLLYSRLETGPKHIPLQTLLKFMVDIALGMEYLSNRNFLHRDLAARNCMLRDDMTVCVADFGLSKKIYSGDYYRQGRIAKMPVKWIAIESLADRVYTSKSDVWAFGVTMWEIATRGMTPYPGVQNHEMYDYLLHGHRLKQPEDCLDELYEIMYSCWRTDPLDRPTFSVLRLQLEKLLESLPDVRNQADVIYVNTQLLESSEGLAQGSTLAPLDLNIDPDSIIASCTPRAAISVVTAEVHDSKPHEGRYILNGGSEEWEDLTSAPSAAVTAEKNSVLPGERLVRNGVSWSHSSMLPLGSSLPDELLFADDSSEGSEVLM
Assay: phosphorylation enrichment, bacterial display (enrichment ratio); higher = better substrate or ligand; peptides without Tyr show the background
For each record, write down the corresponding phosphorylation enrichment.
Could you respond with only the numeric value?

Please indicate recorded phosphorylation enrichment of RPCVVYGGADI [DDX3X_Y301] measured with MERTK (UniProt Q12866). 0.642

Please indicate recorded phosphorylation enrichment of REGAKYVSHCA [ASS1_Y113_G117C] measured with MERTK (UniProt Q12866). 0.504

Please indicate recorded phosphorylation enrichment of FPKDVYVDSKD [NDUFAF4_Y69_L65P] measured with MERTK (UniProt Q12866). 0.377

Please indicate recorded phosphorylation enrichment of KKEGPYDVVVL [PARK7_Y67] measured with MERTK (UniProt Q12866). 0.7

Please indicate recorded phosphorylation enrichment of MARDIYQASFF [LTK_Y672_R673Q_YF] measured with MERTK (UniProt Q12866). 5.44

Please indicate recorded phosphorylation enrichment of IGEGTYGQVFK [CDK13_Y716_YF] measured with MERTK (UniProt Q12866). 0.428

Please indicate recorded phosphorylation enrichment of NTGDDYDLYGG [PTPN11_Y63_Y62D] measured with MERTK (UniProt Q12866). 0.494

Please indicate recorded phosphorylation enrichment of SVVVPYESPEV [TP53_Y220_P222S] measured with MERTK (UniProt Q12866). 0.463

Please indicate recorded phosphorylation enrichment of EEAAGCAQESQ [CAMKV_Y491_Y491C] measured with MERTK (UniProt Q12866). 0.625

Please indicate recorded phosphorylation enrichment of SVNIRYLLFPS [SERAC1_Y548] measured with MERTK (UniProt Q12866). 0.46

Please indicate recorded phosphorylation enrichment of KAPPTYDTVLQ [CYP3A4_Y347] measured with MERTK (UniProt Q12866). 1.89

Please indicate recorded phosphorylation enrichment of FQASFYRRGDR [LTK_Y677_R673Q_YF] measured with MERTK (UniProt Q12866). 0.511

Please indicate recorded phosphorylation enrichment of KANEFYPVVII [ADAMTS18_Y765_L769I_YF] measured with MERTK (UniProt Q12866). 0.386

Please indicate recorded phosphorylation enrichment of RREWFYEVIIA [BACE1_Y260_V265A_YF] measured with MERTK (UniProt Q12866). 1.24

Please indicate recorded phosphorylation enrichment of MPVDGYISGLL [PAK6_Y81] measured with MERTK (UniProt Q12866). 0.41

Please indicate recorded phosphorylation enrichment of KIEGIYARDET [RPL35A_Y34_V33I] measured with MERTK (UniProt Q12866). 0.413

Please indicate recorded phosphorylation enrichment of PGVDRYSLGTS [C5orf42_Y1451] measured with MERTK (UniProt Q12866). 0.788

Please indicate recorded phosphorylation enrichment of YLGEEYVKAVG [TF_Y674] measured with MERTK (UniProt Q12866). 0.403

Please indicate recorded phosphorylation enrichment of NVTRKYTRQIL [MAP3K2_Y463] measured with MERTK (UniProt Q12866). 0.319

Please indicate recorded phosphorylation enrichment of FTNRSYDLDFD [MYC_Y12_N11S_YF] measured with MERTK (UniProt Q12866). 0.422

Please indicate recorded phosphorylation enrichment of FFCRWYRNRKS [EREG_Y144_YF] measured with MERTK (UniProt Q12866). 0.433

Please indicate recorded phosphorylation enrichment of NDPMEYAKQHG [ASS1_Y163_L160P] measured with MERTK (UniProt Q12866). 0.465

Please indicate recorded phosphorylation enrichment of GTYVIYVRFSG [FLNB_Y1687_G1691S] measured with MERTK (UniProt Q12866). 0.455

Please indicate recorded phosphorylation enrichment of RGKEPYTKKAL [TTC21B_Y160] measured with MERTK (UniProt Q12866). 0.724

Please indicate recorded phosphorylation enrichment of KLKPIYFHTQG [AR_Y916_V912L] measured with MERTK (UniProt Q12866). 0.4

Please indicate recorded phosphorylation enrichment of DEQKKYYNAMK [SCN5A_Y1494_E1489D] measured with MERTK (UniProt Q12866). 0.572

Please indicate recorded phosphorylation enrichment of CTTIPYNYMCN [TP53_Y234_H233P] measured with MERTK (UniProt Q12866). 0.418

Please indicate recorded phosphorylation enrichment of EESREYDRLFE [PIK3R1_Y463_K459E_YF] measured with MERTK (UniProt Q12866). 0.546

Please indicate recorded phosphorylation enrichment of SEKIVYGHLDD [ACO2_Y71] measured with MERTK (UniProt Q12866). 0.359
